Entry source: ChEMBL document CHEMBL3885881

Answer each item with its documented BLOOD UREA NITROGEN.
Species on record: Rattus norvegicus
protocol_text: DrugMatrix - Regimen: Daily Repeat
Format: toxicity, organism-based, Sprague-Dawley
Set-up: regimen Daily Repeat, gender Male, age 6-8 weeks
experimental_context: in vivo, po, 50 mg/kg, 120 h, tissue Plasma, route oral GAVAGE, dose level Low, time 5 day, vehicle .5 % CMC
One number for each entry, in mg/dL.

The examples below pair each entry with its known result.
>>> df
                                   molecule        quantity_name  assay_result
0  CCN1CCC[C@H]1CNC(=O)c1cc(S(N)(=O)=O)ccc1OC [LEVOSULPIRIDE]  BLOOD UREA NITROGEN            13
1  CN(C)[C@@H]1C(O)=C(C(N)=O)C(=O)[C@@]2(O)C(O)=C3C(=O)c4c(O)ccc(Cl)c4[C@@](C)(O)[C@H]3C[C@@H]12  BLOOD UREA NITROGEN         17.33

The following molecules each have a reported value; give each one's BLOOD UREA NITROGEN.
1. Cc1cccc(C)c1OCC(C)N (centres undefined)
2. NC1CCN(c2nc3c(cc2F)c(=O)c(C(=O)O)cn3-c2ccc(F)cc2F)C1 (centres undefined)

Resp:
18.67
11
